tested on: MCF10A; assay: percent viability (nuclei count relative to siNT); higher = more viable cells; settings: 20 nM; 72 h
Assay Metric: percent viability

Example sequences with recorded percent viability:
AAAAGCAUCAGGAAGUACCCA [hsa-miR-4422]; 58.8%
GACUGGACAAGCUGAGGAA [hsa-miR-3654]; 99.2%
GAGCUUGGAUGAGCUGGGCUGA [hsa-miR-4538]; 25.3%
ACCAAGUCUGCGUCAUCCUCUC [hsa-miR-3691-3p]; 63.2%
GGGAUUCUGUAGCUUCCU [hsa-miR-4320]; 28.6%
AGGAAGCAAGAGAACCCUGUGG [hsa-miR-6828-5p]; 26.9%
UGCUGAUGGCAGAUGUCGGGUCUG [hsa-miR-8075]; 20.8%
GUGGACCUGGCUGGGAC [hsa-miR-4535]; 65.5%

Any idea what percent viability came out for UGCCCUGCCUGUUUUCUCCUUU [hsa-miR-3173-5p] on MCF10A?
148%

Any idea what percent viability came out for GGGUGAGGGCAGGUGGUU [hsa-miR-4710] on MCF10A?
19.2%

Any idea what percent viability came out for UUUUGCACCUUUUGGAGUGAA [hsa-miR-507] on MCF10A?
42.2%

Any idea what percent viability came out for UGUCUUGCAGGCCGUCAUGCA [hsa-miR-431-5p] on MCF10A?
28.5%

Any idea what percent viability came out for UGUAGGAACAGUUGAAUUUUGGCU [hsa-miR-8065] on MCF10A?
58.9%

Any idea what percent viability came out for UCAGAACAAAUGCCGGUUCCCAGA [hsa-miR-589-3p] on MCF10A?
115%

Any idea what percent viability came out for UCUCUCUCCCACUUCCCUGCAG [hsa-miR-7110-3p] on MCF10A?
25.4%

Any idea what percent viability came out for CUCUAGCCACAGAUGCAGUGAU [hsa-miR-1287-3p] on MCF10A?
17%

Any idea what percent viability came out for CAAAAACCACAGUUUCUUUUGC [hsa-miR-548d-3p] on MCF10A?
65.5%

Any idea what percent viability came out for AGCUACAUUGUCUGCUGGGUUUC [hsa-miR-221-3p] on MCF10A?
59.9%

Any idea what percent viability came out for CGGCCCGGGCUGCUGCUGUUCCU [hsa-miR-1538] on MCF10A?
144%

###

Catalogue of sequences with associated 5+ nucleoli phenotype percent effect
test system: MCF10A; assay: 5+ nucleoli phenotype percent effect (relative to siNT 0% and siKIF11 100%); higher = more cells with five or more nucleoli; details: 20 nM; 72 h
Give just the number in %; leave the unit off.

CCCCGGGAACGUCGAGACUGGAGC [hsa-miR-1247-3p]; -15.3
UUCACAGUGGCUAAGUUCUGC [hsa-miR-27b-3p]; -0.0856
GGAGGCGCAGGCUCGGAAAGGCG [hsa-miR-3197]; 13.6
GCCUAUCACAUAUCUGCCUGU [hsa-miR-3927-5p]; 67.2
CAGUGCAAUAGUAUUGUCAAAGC [hsa-miR-301a-3p]; 43.8
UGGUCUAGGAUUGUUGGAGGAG [hsa-miR-601]; -3.95
AAAUUAUUGUACAUCGGAUGAG [hsa-miR-944]; -36.2

In the following, a different sequence is considered.
Field request: 5+ nucleoli phenotype percent effect | item: UGCAGGGGUCGGGUGGGCCAGG [hsa-miR-6722-3p]
-25.2

###

tested on: MCF10A; assay: percent viability (nuclei count relative to siNT); higher = more viable cells; details: 20 nM; 72 h
Classification field. Basis: percent viability. Definitions: LOW = under 50%, MID = from 50% up to 90%, HIGH = 90% and over

Field: example entries. Status: answers known.
CUGGCAGGGGGAGAGGUA [hsa-miR-7150]; LOW
AAGCAUUCUUUCAUUGGUUGG [hsa-miR-1179]; HIGH
UCUCUGGUCUUGCCACCCCAG [hsa-miR-6824-3p]; LOW
UUAGACCUAGUACACGUCCUU [hsa-miR-3684]; MID
GGUCGUAUGUGUGACGCCAUUU [hsa-miR-489-5p]; MID
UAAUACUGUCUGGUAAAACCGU [hsa-miR-429]; HIGH
UAGUGGUCAGAGGGCUUAUGA [hsa-miR-6718-5p]; LOW
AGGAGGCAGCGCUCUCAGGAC [hsa-miR-650]; LOW
UAUAGGGAUUGGAGCCGUGGCG [hsa-miR-135a-3p]; MID
GUUUAACCUUUUGCCUGUUGG [hsa-miR-552-5p]; HIGH

Into which category would you place UUGCACUUGUCUCAGUGA [hsa-miR-4325] ?
LOW

Into which category would you place AUAAUACAUGGUUAACCUCUUU [hsa-miR-655] ?
HIGH

Into which category would you place UAUGGUACUCCUUAAGCUAAC [hsa-miR-5579-5p] ?
MID

Into which category would you place ACUGCUGAGCUAGCACUUCCCG [hsa-miR-93-3p] ?
LOW

Into which category would you place UGUUUCGGGGCUCAUGGCCUGUG [hsa-miR-5705] ?
HIGH

Into which category would you place GGGGGAAGAAAAGGUGGGG [hsa-miR-4271] ?
MID

Into which category would you place AUCCCACCACUGCCACCAU [hsa-miR-1260b] ?
LOW

Into which category would you place AGUGUGGCUUUCUUAGAGC [hsa-miR-644a] ?
LOW

Into which category would you place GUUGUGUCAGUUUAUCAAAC [hsa-miR-599] ?
MID

Into which category would you place AGGCUGGGCUGGGACGGA [hsa-miR-4505] ?
LOW

Into which category would you place UCUUCUCUGUUUUGGCCAUGUG [hsa-miR-942] ?
MID

Into which category would you place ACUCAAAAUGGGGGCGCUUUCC [hsa-miR-373-5p] ?
MID

Into which category would you place ACCCGCCCGUCUCCCCACAG [hsa-miR-7108-3p] ?
HIGH

Into which category would you place UGGGGCUAGUGAUGCAGGACG [hsa-miR-4489] ?
LOW

Into which category would you place GCUCCCUCUAGGGUCGCUCGGA [hsa-miR-4469] ?
MID

Into which category would you place ACCUGGACCCAGCGUAGACAAAG [hsa-miR-3690] ?
MID

Into which category would you place UGAGCCGAGCUGAGCUUAGCUG [hsa-miR-4537] ?
MID

Into which category would you place UCGUUUGCCUUUUUCUGCUU [hsa-miR-1282] ?
MID

Into which category would you place AGGGAGGGACGGGGGCUGUGC [hsa-miR-149-3p] ?
LOW

Into which category would you place ACUUUAACAUGGAAGUGCUUUC [hsa-miR-302b-5p] ?
HIGH

###

tested on: MCF10A; assay: one-nucleolus phenotype percent effect (relative to siNT 0% and siNOL11 100%); higher = more cells with one nucleolus (ribosome biogenesis inhibition); settings: 20 nM; 72 h
Assay Metric: one-nucleolus phenotype percent effect (%)
Give just the number in %; leave the unit off.

Example sequences with recorded one-nucleolus phenotype percent effect:
CCUGCGAGUCUCCGGCGGUGG [hsa-miR-6068]; -17.2
AUGUAUGUGUGCAUGUGCAUG [hsa-miR-297]; -26.3
UCAGCUACUACCUCUAUUAGG [hsa-miR-5690]; -20.3
UGGAAGGAGGUUGCCGGACGCU [hsa-miR-4533]; 9.34
GGGGGGGGGGGGGGGGGGCCG [hsa-miR-1234-5p]; -31.5

Field request: one-nucleolus phenotype percent effect | item: CCUAUUCUUGGUUACUUGCACG [hsa-miR-26a-1-3p]
4.57

###

Catalogue of sequences with associated 5+ nucleoli phenotype percent effect
system: MCF10A; test: 5+ nucleoli phenotype percent effect (relative to siNT 0% and siKIF11 100%); higher = more cells with five or more nucleoli; settings: 20 nM; 72 h
Give just the number in %; leave the unit off.

Field request: 5+ nucleoli phenotype percent effect | item: CCCAGGGCUUGGAGUGGGGCAAGGUU [hsa-miR-4685-5p]
15

Field request: 5+ nucleoli phenotype percent effect | item: CUAGGUGGGGGGCUUGAAGC [hsa-miR-6802-5p]
-17

Field request: 5+ nucleoli phenotype percent effect | item: AUUGACACUUCUGUGAGUAGA [hsa-miR-514a-3p]
-5.72

Field request: 5+ nucleoli phenotype percent effect | item: CUGGUUUCACAUGGUGGCUUAG [hsa-miR-29b-2-5p]
7.64

Field request: 5+ nucleoli phenotype percent effect | item: UUAGGGAGUAGAAGGGUGGGGAG [hsa-miR-3162-5p]
-5.7

###

test system: MCF10A; assay: percent viability (nuclei count relative to siNT); higher = more viable cells; conditions: 20 nM; 72 h
Rule: percent viability below 40% gives 1. Equal to or above 40% gives -1.

Field: example entries. Status: answers known.
UGACUAACUCCCACUCUACAG [hsa-miR-6831-3p]; -1
AACAUCACAGCAAGUCUGUGCU [hsa-miR-499a-3p]; -1
CCGGCCGCCGGCUCCGCCCCG [hsa-miR-1908-3p]; -1

Does UGGGAGGGCGUGGAUGAUGGUG [hsa-miR-6785-5p] have percent viability strictly under 40%?
-1

Does CAGAAGGGGAGUUGGGAGCAGA [hsa-miR-3154] have percent viability strictly under 40%?
1

Does UAAAAACUGCAAUUACUUUUA [hsa-miR-548aj-3p] have percent viability strictly under 40%?
-1
